- Tested on: OMP
- test-name: Titer against OMP, B10 mice immunized intranasally (Experiment 7)
- Format: in vivo
- measurement-conditions: intranasal, with or without CT
Reported Titer against OMP values for a set of substances
Answer with the value's number alone.

1. OMP-KK-UP: SEQ ID NO:20, KK inserted between OMP and UP (LAVYWELLAKYLLDRVQKVAKKTYEAALKQYEADL; OMP-KK-UP): 32
2. OMP-KK-RGD-UP: SEQ ID NO:34, RGD at N-terminal side of UP (LAVYWELLAKYLLDRVQKVAKKRGDTYEAALKQYEADL; OMP-KK-RGD-UP): 16
3. RGD-OMP-KK-UP: SEQ ID NO:32, RGD at N-terminal side of OMP in OMP-KK-UP (RGDLAVYWELLAKYLLDRVQKVAKKTYEAALKQYEADL; RGD-OMP-KK-UP): 32
4. OMP-RGD-KK-UP: SEQ ID NO:33, RGD at C-terminal side of OMP (LAVYWELLAKYLLDRVQKVARGDKKTYEAALKQYEADL; OMP-RGD-KK-UP): 16

Next up:
Lookup: Find the recorded Titer against OMP belonging to OMP-KK-UP-RGD: SEQ ID NO:35, RGD at C-terminal side of UP (LAVYWELLAKYLLDRVQKVAKKTYEAALKQYEADLRGD; RGD-KK-UP-RGD) and report it.
Found: 16
